Target: T1, AS988 VHH (camel-derived)
T1 construct: One of the 10 different camel-derived nanobodies; not shown: His tag (VHH-His)
T1 sequence (VHH, as listed by the source): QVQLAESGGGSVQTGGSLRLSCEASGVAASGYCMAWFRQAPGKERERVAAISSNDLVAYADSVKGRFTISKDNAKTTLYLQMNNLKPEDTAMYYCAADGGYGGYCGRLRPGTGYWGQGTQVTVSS
Experiment: indirect ELISA, VHH coated
propertyLabel: binding result

>>> endpointvalue("R166.H8 (antibody, V domains shown, Rabbit monoclonal; also called clone R166.H8) VH: QSVEESGGRLVTPGTPLTLTCTVSGFSLSSFAMSWVRQAPGKGLEWIGIIYATGGTRDYATWAAGRFTISKTSTTVGLKMTSPTTEDTATYFCARDRSPDYSAAFNLWGQGTLVTVSS VL: IVMTQTPSSKSVPVGDTVTINCQASESVYSNNHLAWFQQKPGQPPKLLIYSASTLESGVPSRFKGSGSGTQFTLTISGVQCDDAATYYCAGYKSSDTDGTSFGGGTEVVVKG")
"binds"
>>> endpointvalue("R166.D1 (antibody, V domains shown, Rabbit monoclonal; also called clone R166.D1) VH: QSVEESGGRLVKPDESLTLTCTVSGFSLSNYDMIWVRQAPGKGLEWIGVIYPTGTTYYANWVKGRFTISKTSTTVGLLITSPTTEDTATYFCARKPILYVDSSGWYIDLWGQGTLVTVSS VL: AYDMTQTPSSVSAAVGGTVSIKCQASENINNYLSWYQQKPGQPPKLLIYQASRLASAVPSRFKGSGSGTQFTLTIDDLECADAATYYCQQGHSVSNDVGNVFGGGTEVVVKG")
"binds"
>>> endpointvalue("R166.G2 (antibody, V domains shown, Rabbit monoclonal; also called clone R166.G2) VH: QSLEESGGRLVKPDETLTITCTVSGIDLSSDAMSWVRQAPGKGLEWIGLINRYGNTYYASWAKGRFTISKTSTTVDLKVTSLTTEDTATYFCARYGTDSDFYFLDLWGQGTLVTVSS VL: DIVMTQTPASVSEPVGGTVTIKCQASQSIYSYLSWYQQKPGQRPKLLIYKASKLVSGVPSRFRGSGSGTEFTLTISDLECADAASYYCQSDWLISSNGNTFGGGTEVVVTG")
"binds"
